Source: patent US20140219913A1

# reported pEC50; entries follow
# TESTED_ON: T1, Recombinant human B7-1/CD80 Fc chimera (Cat. 140-B1-100, R&D Systems) (human, UniProt P33681 35-242)
# T1 construct: extracellular domain; also called B7-1 antigen; Fc part of the bought chimera not given; not described
# T1 sequence (looked up): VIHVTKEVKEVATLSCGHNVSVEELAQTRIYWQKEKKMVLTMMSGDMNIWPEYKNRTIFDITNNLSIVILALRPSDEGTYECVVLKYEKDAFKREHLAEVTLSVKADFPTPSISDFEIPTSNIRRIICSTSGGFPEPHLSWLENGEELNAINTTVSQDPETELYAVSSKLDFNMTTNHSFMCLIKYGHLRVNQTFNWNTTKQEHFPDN
# ASSAY_PROCEDURE: competitive ELISA; coated CD28 Fc, biotinylated B7-1/CD80 Fc (2 nM), construct titrated
Conceptually, pEC50 converts a concentration in mol/L into minus its log10.

### Prompt State the recorded pEC50 for this entry: RAB015 (other, rDVD-Ig with LEA29Y on the light chain only and a long linker; also called RAB015H; RAB015L) VH: EVQLVQSGAEVKKPGASVKVSCKASGYTFTKYWLGWVRQAPGQGLEWMGDIYPGYDYTHYNEKFKDRVTLTTDTSTSTAYMELRSLRSDDTAVYYCARSDGSSTYWGQGTLVTVSS VL: AMHVAQPAVVLASSRGIASFVCEYASPGKYTEVRVTVLRQADSQVTEVCAATYMMGNELTFLDDSICTGTSSGNQVNLTIQGLRAMDTGLYICKVELMYPPPYYEGIGNGTQIYVIDPEPCPDSDTVAAPSVFIFPPDVLMTQTPLSLPVTPGEPASISCTSSQNIVHSNGNTYLEWYLQKPGQSPQLLIYKVSNRFSGVPDRFSGSGSGTDFTLKISRVEAEDVGVYYCFQVSHVPYTFGGGTKVEIKR
### Response 7.10

### Prompt State the recorded pEC50 for this entry: RAB014 (other, rDVD-Ig with LEA29Y on the heavy chain only and a long linker; also called RAB014H; RAB014L) VH: AMHVAQPAVVLASSRGIASFVCEYASPGKYTEVRVTVLRQADSQVTEVCAATYMMGNELTFLDDSICTGTSSGNQVNLTIQGLRAMDTGLYICKVELMYPPPYYEGIGNGTQIYVIDPEPCPDSDASTKGPSVFPLAPEVQLVQSGAEVKKPGASVKVSCKASGYTFTKYWLGWVRQAPGQGLEWMGDIYPGYDYTHYNEKFKDRVTLTTDTSTSTAYMELRSLRSDDTAVYYCARSDGSSTYWGQGTLVTVSS VL: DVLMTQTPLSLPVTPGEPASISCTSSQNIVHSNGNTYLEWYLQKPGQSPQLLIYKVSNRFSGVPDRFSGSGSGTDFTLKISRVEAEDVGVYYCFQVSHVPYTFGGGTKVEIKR
### Response 8.77

### Prompt State the recorded pEC50 for this entry: RAB009 (other, rDVD-Ig with LEA29Y on the light chain only; also called RAB009H; RAB009L) VH: EVQLVQSGAEVKKPGASVKVSCKASGYTFTKYWLGWVRQAPGQGLEWMGDIYPGYDYTHYNEKFKDRVTLTTDTSTSTAYMELRSLRSDDTAVYYCARSDGSSTYWGQGTLVTVSS VL: AMHVAQPAVVLASSRGIASFVCEYASPGKYTEVRVTVLRQADSQVTEVCAATYMMGNELTFLDDSICTGTSSGNQVNLTIQGLRAMDTGLYICKVELMYPPPYYEGIGNGTQIYVIDPEPCPDSDTVAAPDVLMTQTPLSLPVTPGEPASISCTSSQNIVHSNGNTYLEWYLQKPGQSPQLLIYKVSNRFSGVPDRFSGSGSGTDFTLKISRVEAEDVGVYYCFQVSHVPYTFGGGTKVEIKR
### Response 8.57
